# Experimental Target: T1, cynoNectin4-mFc (cyno, UniProt A0A2K5WES1 32-349)
# T1 construct: Immobilized on the SPR chip; also called cyanoNectin4; not shown: mFc (mouse Fc)
# T1 sequence: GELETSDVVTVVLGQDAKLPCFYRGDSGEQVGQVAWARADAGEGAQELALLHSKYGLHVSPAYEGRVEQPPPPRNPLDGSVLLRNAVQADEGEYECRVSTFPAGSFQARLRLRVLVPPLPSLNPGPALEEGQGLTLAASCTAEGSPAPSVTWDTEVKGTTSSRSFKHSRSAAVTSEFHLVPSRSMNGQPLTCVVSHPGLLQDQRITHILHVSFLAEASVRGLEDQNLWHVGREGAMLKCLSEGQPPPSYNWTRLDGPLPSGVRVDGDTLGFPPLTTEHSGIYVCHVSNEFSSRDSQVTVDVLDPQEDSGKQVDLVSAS
# Experiment Description: SPR, cynoNectin4-mFc immobilized, pH 7.4
Reported Kd values follow for various binders
Express your answer in nM, writing the number without its unit.

Please review the entries below; each comes with its answer.
Binder	Quantity Kind	Recorded Measurement
BAP-143-00-05 (antibody, V domains shown, Used as a conjugate with a linker payload (CAB ADC)) VH: EVQLVESGGGLVQPGGSLRLSCAASGFTFSSYNMNWVRQAPGKGLEWVSYISSSSSTIYYADSVKGRFTISRDNAKNSLSLQMNSLRDEDTAVYYCAEAYYYGMDVWGQGTTVTVSS VL: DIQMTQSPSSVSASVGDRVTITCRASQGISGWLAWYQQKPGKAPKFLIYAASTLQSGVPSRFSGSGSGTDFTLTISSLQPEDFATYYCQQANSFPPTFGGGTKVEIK	Kd	4.89
BAP-143-00-01 (antibody, V domains shown, Used as a conjugate with a linker payload (CAB ADC)) VH: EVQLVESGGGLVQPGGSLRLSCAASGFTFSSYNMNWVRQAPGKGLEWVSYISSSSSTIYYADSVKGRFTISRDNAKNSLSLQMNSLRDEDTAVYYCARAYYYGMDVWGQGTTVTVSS VL: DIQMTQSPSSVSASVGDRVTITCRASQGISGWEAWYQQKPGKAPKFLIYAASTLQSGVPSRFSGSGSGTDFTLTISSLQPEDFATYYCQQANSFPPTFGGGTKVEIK	Kd	11.1

Turning now to a further binder:
*Q* Quote Kd reported for BAP-143-00-06 (antibody, V domains shown, Used as a conjugate with a linker payload (CAB ADC)) VH: EVQLVESGGGLVQPGGSLRLSCAASGFTFSSYNMNWVRQAPGKGLEWVSYISSSSSTIYYADSVKGRFTISRDNAKNSLSLQMNSLRDEDTAVYYCARAYYYGDDVWGQGTTVTVSS VL: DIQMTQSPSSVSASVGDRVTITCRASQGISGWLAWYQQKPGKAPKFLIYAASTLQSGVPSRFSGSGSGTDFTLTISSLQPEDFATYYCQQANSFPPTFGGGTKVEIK please.
*A* 0.4

Sourced from patent US20230235054A1
